Reference source: ChEMBL document CHEMBL1821622

Protocol details: Inhibition of rat recombinant FTase using Dansyl-Gly-Cys-Val-Leu-Ser-OH peptide and farnesyl-pyrophosphate substrates measured every 15 seconds for 5 mins by fluorescent assay
Condition info: read-out: IC50
pIC50: −log10 of the molar value.
Catalogue of molecules with associated pIC50

- Sample smiles: "CSCC[C@H](NC(=O)c1ccc(NC[C@@H](N)CS)cc1-c1ccccc1)C(=O)O"
  pIC50: 8.05
- Sample smiles: "CSCC[C@H](NC(=O)c1ccc(NC(=O)Cc2c[nH]c(S)n2)cc1-c1ccccc1C)C(=O)O"
  pIC50: 6.91
- Sample smiles: "CSCC[C@H](NC(=O)c1ccc(NC(=O)CCc2csc(N)n2)cc1-c1ccccc1C)C(=O)O"
  pIC50: 6.41
- Sample smiles: "CSCC[C@H](NC(=O)c1ccc(NC(=O)Cc2csc(S)n2)cc1-c1ccccc1C)C(=O)O"
  pIC50: 6.27
- Sample smiles: "CSCC[C@H](NC(=O)c1ccc(NC(=O)CCc2csc(S)n2)cc1-c1ccccc1C)C(=O)O"
  pIC50: 6.28
- Sample smiles: "CSCC[C@H](NC(=O)c1ccc(NC(=O)Cc2csc(N)n2)cc1-c1ccccc1C)C(=O)O"
  pIC50: 7.31
- Sample smiles: "CSCC[C@H](NC(=O)c1ccc(NC(=O)CCc2csc(SC)n2)cc1-c1ccccc1C)C(=O)O"
  pIC50: 6.38
